target: T1, recombinant His-tagged human FRα (human, UniProt P15328 25-234)
T1 construct: Bought protein; also called hFRα; FRα-HIS
T1 sequence (P15328 25-234 limits assumed): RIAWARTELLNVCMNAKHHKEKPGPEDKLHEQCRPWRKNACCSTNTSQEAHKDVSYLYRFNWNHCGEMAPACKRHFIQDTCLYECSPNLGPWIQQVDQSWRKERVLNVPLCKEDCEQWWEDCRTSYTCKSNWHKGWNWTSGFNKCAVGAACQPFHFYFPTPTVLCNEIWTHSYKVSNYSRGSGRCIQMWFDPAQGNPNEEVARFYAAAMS
procedureText: BLI, n=2
Answer each item with its documented Kd.
Numbers only, in nM.

Worked examples follow.
v29676 (scFv, One-armed: scFv fused by an Ala-Ala linker to the N-terminus (hinge) of Het FcA, paired with Het FcB Fc; also called N-term VL-(short)-VH) scFv: DIQMTQSPSSLSASVGDRVTITCQASQSIYSSLAWYQQKPGKAPKLLIYDASHLASGVPSRFSGSRYGTDFTLTISSVQPEDFATYYCQGGWYSSAATYVPNTFGGGTKVEVKGGGGSGGGGSGGGGSEVQLVESGGGLVQPGGSLRLSCAASGFTISNNYYMCWVRQAPGKGLEWIACIYGGISGRTYYADSAKGRFTISKDSSNTVYLQMNSLRAEDTAVYYCVRGYVGTSNLWGQGTLVTVSS : 3.9
v29683 (scFv, One-armed, scFv at the C-terminus of Het FcA; VL-G100C and VH-G44C already in the entry; also called C-term VH-(short)-VL + disulfide) scFv: EVQLVESGGGLVQPGGSLRLSCAASGFTISNNYYMCWVRQAPGKCLEWIACIYGGISGRTYYADSAKGRFTISKDSSNTVYLQMNSLRAEDTAVYYCVRGYVGTSNLWGQGTLVTVSSGGGGSGGGGSGGGGSDIQMTQSPSSLSASVGDRVTITCQASQSIYSSLAWYQQKPGKAPKLLIYDASHLASGVPSRFSGSRYGTDFTLTISSVQPEDFATYYCQGGWYSSAATYVPNTFGCGTKVEVK : 1.1
v29685 (scFv, One-armed, scFv at the C-terminus of Het FcA; VL-G100C and VH-G44C already in the entry; also called C-term VH-(long)-VL + disulfide) scFv: EVQLVESGGGLVQPGGSLRLSCAASGFTISNNYYMCWVRQAPGKCLEWIACIYGGISGRTYYADSAKGRFTISKDSSNTVYLQMNSLRAEDTAVYYCVRGYVGTSNLWGQGTLVTVSSGGSGGGSGGGSGGGSGGGSGDIQMTQSPSSLSASVGDRVTITCQASQSIYSSLAWYQQKPGKAPKLLIYDASHLASGVPSRFSGSRYGTDFTLTISSVQPEDFATYYCQGGWYSSAATYVPNTFGCGTKVEVK : 4.2
v29682 (scFv, One-armed, scFv at the C-terminus of Het FcA; VL-G100C and VH-G44C (Kabat) already in the entry; also called C-term VL-(short)-VH + disulfide) scFv: DIQMTQSPSSLSASVGDRVTITCQASQSIYSSLAWYQQKPGKAPKLLIYDASHLASGVPSRFSGSRYGTDFTLTISSVQPEDFATYYCQGGWYSSAATYVPNTFGCGTKVEVKGGGGSGGGGSGGGGSEVQLVESGGGLVQPGGSLRLSCAASGFTISNNYYMCWVRQAPGKCLEWIACIYGGISGRTYYADSAKGRFTISKDSSNTVYLQMNSLRAEDTAVYYCVRGYVGTSNLWGQGTLVTVSS : 2.1

Q. Hello, please tell me recorded Kd for this one: v29679 (scFv, One-armed, scFv at the C-terminus of Het FcA (GGGG linker); also called C-term VH-(short)-VL) scFv: EVQLVESGGGLVQPGGSLRLSCAASGFTISNNYYMCWVRQAPGKGLEWIACIYGGISGRTYYADSAKGRFTISKDSSNTVYLQMNSLRAEDTAVYYCVRGYVGTSNLWGQGTLVTVSSGGGGSGGGGSGGGGSDIQMTQSPSSLSASVGDRVTITCQASQSIYSSLAWYQQKPGKAPKLLIYDASHLASGVPSRFSGSRYGTDFTLTISSVQPEDFATYYCQGGWYSSAATYVPNTFGGGTKVEVK
A. 0.39

Source of measurements: patent US20230052369A1
